Target: Protein deacetylase HDAC6 (Homo sapiens)
Sequence (Q9UBN7 whole entry): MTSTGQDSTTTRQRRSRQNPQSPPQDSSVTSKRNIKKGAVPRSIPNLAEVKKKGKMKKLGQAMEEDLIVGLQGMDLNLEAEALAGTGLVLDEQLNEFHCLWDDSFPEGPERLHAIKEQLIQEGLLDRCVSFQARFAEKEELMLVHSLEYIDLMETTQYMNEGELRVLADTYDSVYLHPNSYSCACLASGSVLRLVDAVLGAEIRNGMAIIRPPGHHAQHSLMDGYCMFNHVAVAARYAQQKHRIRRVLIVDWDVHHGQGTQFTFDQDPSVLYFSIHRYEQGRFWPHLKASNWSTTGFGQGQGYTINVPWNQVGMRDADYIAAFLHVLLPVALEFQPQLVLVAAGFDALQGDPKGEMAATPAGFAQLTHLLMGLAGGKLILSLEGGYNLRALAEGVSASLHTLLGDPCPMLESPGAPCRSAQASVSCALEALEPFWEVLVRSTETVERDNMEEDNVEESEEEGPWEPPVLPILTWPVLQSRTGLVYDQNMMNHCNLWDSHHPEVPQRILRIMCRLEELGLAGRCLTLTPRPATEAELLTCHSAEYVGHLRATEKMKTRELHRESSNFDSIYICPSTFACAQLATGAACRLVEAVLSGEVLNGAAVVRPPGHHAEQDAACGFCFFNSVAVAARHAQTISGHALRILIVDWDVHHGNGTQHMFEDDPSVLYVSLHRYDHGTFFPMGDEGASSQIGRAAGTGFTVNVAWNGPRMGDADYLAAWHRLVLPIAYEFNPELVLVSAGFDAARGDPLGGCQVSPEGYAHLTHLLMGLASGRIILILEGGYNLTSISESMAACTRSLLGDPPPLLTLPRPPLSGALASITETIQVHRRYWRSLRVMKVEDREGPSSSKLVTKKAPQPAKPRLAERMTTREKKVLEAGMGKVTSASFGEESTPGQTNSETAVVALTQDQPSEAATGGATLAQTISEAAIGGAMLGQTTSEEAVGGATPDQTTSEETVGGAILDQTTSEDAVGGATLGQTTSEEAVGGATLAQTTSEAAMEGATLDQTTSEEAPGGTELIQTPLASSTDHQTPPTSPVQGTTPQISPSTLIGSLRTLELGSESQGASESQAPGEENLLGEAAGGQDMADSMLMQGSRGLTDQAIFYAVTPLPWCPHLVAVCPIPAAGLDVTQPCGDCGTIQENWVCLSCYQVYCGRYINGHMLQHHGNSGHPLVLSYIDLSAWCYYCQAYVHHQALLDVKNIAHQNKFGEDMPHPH
Experiment: Inhibition of full length His-tagged human recombinant HDAC6 expressed in baculovirus system using fluor de Lys as substrate by fluorometric analysis
measured.parameter: IC50 (µM)
Record the value in µM, omitting the unit from your answer.

# IC50 lookup, item "O=C(CCCCCCC(=O)N1CCN=C(c2ccccc2)c2ccccc21)NO"
1.12

# IC50 lookup, item "CN1C(=O)CN=C(c2ccccc2)c2cc(C#C/C=C/C(=O)NO)ccc21"
7.72

# IC50 lookup, item CN1C(=O)C(NC(=O)CCCCCC(=O)NO)N=C(c2ccccc2)c2ccccc21 (racemic)
0.18

# IC50 lookup, item "CN1C(=O)CN=C(c2ccccc2)c2cc(C#CCCCCC(=O)NO)ccc21"
5.9

# IC50 lookup, item "CN1C(=O)[C@@H](NC(=O)CCCCCCC(=O)NO)N=C(c2ccccc2)c2ccccc21"
0.4

# IC50 lookup, item "CN1C(=O)[C@H](NC(=O)CCCCCCC(=O)NO)N=C(c2ccccc2)c2ccccc21"
6.5

# IC50 lookup, item CN1C(=O)C(NC(=O)CCCCCCCC(=O)NO)N=C(c2ccccc2)c2ccccc21 (racemic)
9.08

# IC50 lookup, item "C[C@@H]1N=C(c2ccccc2)c2cc(C#CCCCC(=O)NO)ccc2NC1=O"
0.46
